Molecular target: T1, MutS (Escherichia coli, UniProt P23909 1-853)
T1 sequence: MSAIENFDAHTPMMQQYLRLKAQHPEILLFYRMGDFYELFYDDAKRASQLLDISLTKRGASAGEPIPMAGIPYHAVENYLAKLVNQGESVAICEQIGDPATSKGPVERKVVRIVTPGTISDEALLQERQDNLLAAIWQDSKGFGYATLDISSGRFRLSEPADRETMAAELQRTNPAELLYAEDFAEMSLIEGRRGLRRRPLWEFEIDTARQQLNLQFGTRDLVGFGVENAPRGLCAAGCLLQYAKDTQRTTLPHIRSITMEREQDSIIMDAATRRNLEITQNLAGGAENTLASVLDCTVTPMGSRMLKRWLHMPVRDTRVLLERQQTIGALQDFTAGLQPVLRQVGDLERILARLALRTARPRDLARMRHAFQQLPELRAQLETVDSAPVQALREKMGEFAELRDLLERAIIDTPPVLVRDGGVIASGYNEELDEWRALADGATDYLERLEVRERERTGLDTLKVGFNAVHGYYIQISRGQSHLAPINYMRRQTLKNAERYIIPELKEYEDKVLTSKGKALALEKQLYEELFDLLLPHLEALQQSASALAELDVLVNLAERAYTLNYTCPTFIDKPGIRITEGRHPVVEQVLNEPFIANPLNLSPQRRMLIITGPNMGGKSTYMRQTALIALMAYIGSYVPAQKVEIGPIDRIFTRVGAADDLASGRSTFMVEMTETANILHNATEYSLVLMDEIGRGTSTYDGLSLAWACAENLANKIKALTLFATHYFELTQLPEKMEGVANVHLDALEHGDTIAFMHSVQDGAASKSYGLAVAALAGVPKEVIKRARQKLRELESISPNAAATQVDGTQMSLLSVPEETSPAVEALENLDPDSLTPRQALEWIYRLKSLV
Assay: EMSA; 5 mM Mg2+; 20 pmol unlabeled GC duplex; 20 mM Tris-HCl pH 7.6, 50 mM KCl, 5 mM MgCl2, 1 mM DTT, 0.05 mg/ml BSA, 37 °C 15 min, 20 μl, 2 pmol labeled duplex, 20 pmol unlabeled GC duplex, 5% native PAGE
Details: protein: recombinant; tags: His6; chain copies: 2; label: 5'-32P (KN-2 or KN-3 strand); O6-EtG:T pair
experimental.readout: Kd (nM)
Entry rule: numbers only, all in nM.

Task: Can you look up the measured Kd of O6-EtG:T duplex (dsDNA, O6-ethylguanine opposite T) DNA 1: GGTCGCTGGGGAATGGGAGTGGCCACGGCG DNA 2: CGCCGTGGCCACTCTCATTCCCCAGCGACC for me?
Output: 210
